# Assay Target: T1, New Guinea/1944 (NGC)* (serotype II EDIII) (Dengue virus 2)
# T1 construct: isolated EDIII protein; also called EDIII of DENV-2 NGC
# T1 sequence (P14340 578-673): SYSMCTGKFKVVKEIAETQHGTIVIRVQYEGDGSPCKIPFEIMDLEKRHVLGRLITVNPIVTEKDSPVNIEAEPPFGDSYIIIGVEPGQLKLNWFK
# Procedure Text: Kd table, method not stated; Ag DENV-2 NGC
pKd: −log10 of the molar value.
Parameter: pKd. Scope: all listed entries.

INSERT INTO results (binder, measured_property, measured) VALUES
  ('antibody A11 (antibody, V domains shown, also called mAb A11; 4E5A) VH: VKLLEQSGAELVKPGASVRLSCTASGFNIKDTYMSWVKQRPEQGLEWIGRIDPENGDTKYDPKFQGKATITADTSSNTAYLHLSSLTSGDTAVYYCSRGWEGFAYWGQGTLVTVSA VL: ELVMTQTPASLAVSLGQRATISCRASENVDKYGNSFMHWYQQKAGQPPKLLIYRASELQWGIPARFSGSGSRTDFTLTINPVEADDVATYFCQRSNEVPWTFGGGTKLEIK', 'pKd', '> 10.00');

Kindly indicate its recorded pKd. Item: antibody C88 (antibody, V domains shown) VH: QVQLVQSGAEVKKPGASVKVSCKASGFNIKDVYMSWVRQAPEQGLEWMGRIDPENGDTKYDPKLQGRVTMTADTSTNTAYMELRSLRSDDTAVYYCARGWEGFAYWGQGTLVTVSS VL: DIVMTQSPASLAVSLGERATISCRASENVDKYGNSFMHWYQQKPGQPPKLLIYRASELQWGVPDRFSGSGSGTDFTLTISSLQAEDVAVYYCQRSNEVPWTFGQGTKLEIK
> 10.00

Kindly indicate its recorded pKd. Item: mouse mAb 4E11 (antibody, V domains shown, also called antibody 4E11) VH: VKLLEQSGAELVKPGASVRLSCTASGFNIKDTYMSWVKQRPEQGLEWIGRIDPANGDTKYDPKFQGKATITADTSSNTAYLHLSSLTSGDTAVYYCSRGWEGFAYWGQGTLVTVSA VL: ELVMTQTPASLAVSLGQRATISCRASENVDRYGNSFMHWYQQKAGQPPKLLIYRASNLESGIPARFSGSGSRTDFTLTINPVEADDVATYFCQRSNEVPWTFGGGTKLEIK
8.28

Kindly indicate its recorded pKd. Item: antibody D88 (antibody, V domains shown, also called mAb D88) VH: QVQLVQSGAEVKKPGASVKVSCKAGFNIKDVYMSWVRQAPEQGLEWMGRIDPENGDTKYDPKLQGRVTMTADTSTNTAYMELRSLRSDDTAVYYCARGWEGFAYWGQGTLVTVSS VL: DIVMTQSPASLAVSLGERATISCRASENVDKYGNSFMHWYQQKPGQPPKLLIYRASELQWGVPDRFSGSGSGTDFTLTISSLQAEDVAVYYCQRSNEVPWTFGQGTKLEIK
> 10.00

These data points were gathered from patent US20240425569A1.
